// log10(IC50) lookup, one value per entry
Target: human mAChR M4 (Homo sapiens, UniProt P08173)
Construct: expressed in transfected cells; host or cells: CHO-K1 (ATCC), stably co-expressing chimeric G protein Gqi5
Sequence (P08173 1-479): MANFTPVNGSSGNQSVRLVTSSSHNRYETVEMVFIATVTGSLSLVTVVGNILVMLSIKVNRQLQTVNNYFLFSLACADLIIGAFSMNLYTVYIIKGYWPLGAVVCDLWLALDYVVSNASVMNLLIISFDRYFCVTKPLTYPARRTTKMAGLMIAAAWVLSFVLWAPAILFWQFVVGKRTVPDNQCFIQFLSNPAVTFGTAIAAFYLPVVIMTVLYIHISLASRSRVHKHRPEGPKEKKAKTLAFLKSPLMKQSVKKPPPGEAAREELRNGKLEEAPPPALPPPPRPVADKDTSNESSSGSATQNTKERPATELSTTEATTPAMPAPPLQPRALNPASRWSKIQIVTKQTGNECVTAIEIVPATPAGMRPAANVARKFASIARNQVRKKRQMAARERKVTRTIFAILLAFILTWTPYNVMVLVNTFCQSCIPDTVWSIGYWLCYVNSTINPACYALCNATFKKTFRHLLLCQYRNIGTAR
Test: mAChR M4 cell-based functional assay (calcium mobilization, EC80 acetylcholine), human M4
Conditions: Table 10; M4/Gqi5/CHO-K1 cells, decrease of EC80 acetylcholine response
Answers are given as log10 of IC50 in µM.

Compound: Fc1ccc(Cl)c(-c2ccc(N[C@H]3C[C@@H]4CN(CC5CC5)C[C@@H]4C3)nn2)c1
log10(IC50): -1.73
--
Compound: CS(=O)(=O)Nc1cccc(-c2ccc(N[C@H]3C[C@@H]4CN(CC5CCOCC5)C[C@@H]4C3)nn2)c1
log10(IC50): -2.13
--
Compound: Fc1ccc(CN2C[C@H]3C[C@H](Nc4ccc(-c5cc(F)ccc5Cl)nn4)C[C@H]3C2)cc1
log10(IC50): -1.71
--
Compound: Fc1cnc(Cl)c(-c2ccc(N[C@H]3C[C@@H]4CN(CC5CCOCC5)C[C@@H]4C3)nn2)c1
log10(IC50): -3.40
--
Compound: Fc1ccc(Cl)c(-c2ccc(N[C@H]3C[C@@H]4CN(Cc5cnc6ccccc6c5)C[C@@H]4C3)nn2)c1
log10(IC50): -1.19
--
Compound: c1cc(-c2ccc(N[C@H]3C[C@@H]4CN(CC5CCOCC5)C[C@@H]4C3)nn2)c[nH]1
log10(IC50): -0.99

## Input GET log10(IC50) where system = human mAChR M4 (Homo sapiens, UniProt P08173) and item = `CC1(CN2C[C@H]3C[C@H](Nc4ccc(-c5cc(F)ccc5Cl)nn4)C[C@H]3C2)COC1`
## Output -1.07

## Input GET log10(IC50) where system = human mAChR M4 (Homo sapiens, UniProt P08173) and item = `FC(F)Oc1ccc(-c2ccc(N[C@H]3C[C@@H]4CN(CC5CCOCC5)C[C@@H]4C3)nn2)cc1`
## Output -2.19

## Input GET log10(IC50) where system = human mAChR M4 (Homo sapiens, UniProt P08173) and item = `c1coc(-c2ccc(N[C@H]3C[C@@H]4CN(CC5CCOCC5)C[C@@H]4C3)nn2)c1`
## Output -2.10

## Input GET log10(IC50) where system = human mAChR M4 (Homo sapiens, UniProt P08173) and item = `Fc1ccc(Cl)c(-c2ccc(N[C@H]3C[C@@H]4CN(Cc5ccoc5)C[C@@H]4C3)nn2)c1`
## Output -1.35

## Input GET log10(IC50) where system = human mAChR M4 (Homo sapiens, UniProt P08173) and item = `Cc1nn(C)cc1-c1ccc(N[C@H]2C[C@@H]3CN(CCC(C)(C)C)C[C@@H]3C2)nc1`
## Output -0.90

## Input GET log10(IC50) where system = human mAChR M4 (Homo sapiens, UniProt P08173) and item = `Fc1ccc(Cl)c(-c2ccc(N[C@@H]3C[C@@H]4CN(CC5CCOCC5)C[C@@H]4C3)nn2)c1`
## Output -1.08

## Input GET log10(IC50) where system = human mAChR M4 (Homo sapiens, UniProt P08173) and item = Cc1nn(C)cc1-c1cnc(N[C@H]2C[C@@H]3CN(CC4CC5C=CC4C5)C[C@@H]3C2)cn1 (stereo partly shown)
## Output -1.51

## Input GET log10(IC50) where system = human mAChR M4 (Homo sapiens, UniProt P08173) and item = `Fc1cccc(-c2ccc(N[C@H]3C[C@@H]4CN(CC5CCOCC5)C[C@@H]4C3)nn2)c1Cl`
## Output -3.29

## Input GET log10(IC50) where system = human mAChR M4 (Homo sapiens, UniProt P08173) and item = `F[C@H]1CCN(c2ccc(N[C@H]3C[C@@H]4CN(CC5CCOCC5)C[C@@H]4C3)nn2)C1`
## Output -2.04

## Input GET log10(IC50) where system = human mAChR M4 (Homo sapiens, UniProt P08173) and item = `Fc1ccc(Cl)c(-c2ccc(N[C@H]3C[C@@H]4CN(Cc5ccncc5)C[C@@H]4C3)nn2)c1`
## Output -2.34
